All values here come from patent US5366983A.

System: Salmonella typhimurium on chicken skin
Assay info: Effect of surfactants on Salmonella attached to chicken skin, drumsticks (Tables F1-F4)
Settings: 0.1%; 4° C.
Value kind: Wash H2O, chicken legs producing the notated number of colonies

Find the measured Wash H2O, chicken legs producing the notated number of colonies: item C[C@H](CCC(=O)O)[C@H]1CC[C@H]2[C@@H]3CC[C@@H]4C[C@H](O)CC[C@]4(C)[C@H]3C[C@H](O)[C@]12C [Deoxycholic Acid, reference compound] , target or system Salmonella typhimurium on chicken skin.
10/10

Lab request: please report Wash H2O, chicken legs producing the notated number of colonies under test system Salmonella typhimurium on chicken skin for CCCCCCCCCCCCOS(=O)(=O)[O-].[Na+] [SDS, sodium dodecylsulfate, reference compound]
10/10

Form field: Wash H2O, chicken legs producing the notated number of colonies recorded for CCCCCCCCCCCCCCCC[n+]1ccccc1 [CPC, cetylpyridinium chloride] with Salmonella typhimurium on chicken skin (enter value)
8/10

Hello, I am looking for reported Wash H2O, chicken legs producing the notated number of colonies with Salmonella typhimurium on chicken skin for CC(C)(C)CC(C)(C)c1ccc(OCCOCC[N+](C)(C)Cc2ccccc2)cc1 [Benzethonium Chloride, reference compound] . Could you help?
1/10

====

Test system: Salmonella typhimurium on chicken skin
Assay info: Effect of surfactants on Salmonella attached to chicken skin, drumsticks (Tables F1-F4)
Settings: 0.1%; 4° C.
Value kind: Swabs, colonies

>>> result("C[C@H](CCC(=O)O)[C@H]1CC[C@H]2[C@@H]3CC[C@@H]4C[C@H](O)CC[C@]4(C)[C@H]3C[C@H](O)[C@]12C [Deoxycholic Acid, reference compound]")
"++ (11-100)"
>>> result("CC(C)(C)CC(C)(C)c1ccc(OCCOCC[N+](C)(C)Cc2ccccc2)cc1 [Benzethonium Chloride, reference compound]")
"++ (11-100)"
>>> result("CCCCCCCCCCCCOS(=O)(=O)[O-].[Na+] [SDS, sodium dodecylsulfate, reference compound]")
"++ (11-100)"

====

Test system: Salmonella typhimurium on chicken skin
Assay info: Effect of surfactants on Salmonella attached to chicken skin, drumsticks (Tables F1-F4)
Settings: 0.5%; 4° C.
Value kind: Enrichment, chicken legs out of ten

Return reported Enrichment, chicken legs out of ten; argument: C[C@H](CCC(=O)O)[C@H]1CC[C@H]2[C@@H]3CC[C@@H]4C[C@H](O)CC[C@]4(C)[C@H]3C[C@H](O)[C@]12C [Deoxycholic Acid, reference compound]
10/10

Any idea what its Enrichment, chicken legs out of ten is? The molecule is CCCCCCCCCCCCOS(=O)(=O)[O-].[Na+] [SDS, sodium dodecylsulfate, reference compound]
10/10

Value lookup for Enrichment, chicken legs out of ten; key = CC(C)(C)CC(C)(C)c1ccc(OCCOCC[N+](C)(C)Cc2ccccc2)cc1 [Benzethonium Chloride, reference compound]
0/10

Please report the recorded Enrichment, chicken legs out of ten for CCCCCCCCCCCCCCCC[n+]1ccccc1 [CPC, cetylpyridinium chloride] .
9/10

====

Tested on: Salmonella typhimurium on chicken skin
Assay info: Effect of surfactants on Salmonella attached to chicken skin, drumsticks (Tables F1-F4)
Settings: 0.1%; 25° C.
Value kind: Rinse H2O

>>> result("CCCCCCCCCCCCCCCC[N+](C)(C)C.[Br-] [HTMAB, hexadecyltrimethylammonium bromide]")
"+ (1-10)"
>>> result("CCCCCCCCCCCC[N+](C)(C)C.[Br-] [DTMAB, dodecyltrimethylammonium bromide]")
"+ (1-10)"
